molecular target: Indoleamine 2,3-dioxygenase 1 (Homo sapiens, UniProt P14902); assay: Binding affinity to NT647 dye labeled recombinant human IDO1 (1 to 403 residues) by microscale thermophoresis method
Sequence (P14902 whole entry, the tested form may be a part): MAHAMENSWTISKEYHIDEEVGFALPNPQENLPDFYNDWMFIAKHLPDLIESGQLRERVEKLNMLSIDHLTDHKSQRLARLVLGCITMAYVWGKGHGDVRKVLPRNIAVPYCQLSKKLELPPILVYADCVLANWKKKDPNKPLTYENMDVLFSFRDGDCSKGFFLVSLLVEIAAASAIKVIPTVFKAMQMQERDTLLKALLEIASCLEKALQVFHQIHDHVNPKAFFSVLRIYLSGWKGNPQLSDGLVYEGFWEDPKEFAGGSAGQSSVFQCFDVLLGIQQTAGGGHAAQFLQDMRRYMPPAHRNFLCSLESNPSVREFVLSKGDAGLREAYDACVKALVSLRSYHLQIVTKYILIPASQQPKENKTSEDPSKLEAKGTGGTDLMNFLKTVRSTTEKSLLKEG
pKd: −log10 of the molar value.
REPORTED_METRIC: pKd

The following compounds have reported results that may help.
# lookup: O=C1CC(NC(=O)Cn2ccc3ccccc32)CN1 (configuration not stated) on Indoleamine 2,3-dioxygenase 1 (Homo sapiens, UniProt P14902), pKd = 3.63

Bench note, Indoleamine 2,3-dioxygenase 1 (Homo sapiens, UniProt P14902): COc1ccccc1OCC(O)Cn1cnc2ccccc21 (configuration not stated) , pKd reads 4.06

Known value: Indoleamine 2,3-dioxygenase 1 (Homo sapiens, UniProt P14902) pKd of the compound NCCc1nc2ccc(F)cc2[nH]1 equals 3.26

The reported pKd value, Indoleamine 2,3-dioxygenase 1 (Homo sapiens, UniProt P14902), for O=C(NCCn1ncccc1=O)c1ccc2ccccc2c1 reads 3.62

Hey, Indoleamine 2,3-dioxygenase 1 (Homo sapiens, UniProt P14902) data for Cc1c(C)n(CC(O)CN2CCNCC2)c2ccccc12 (configuration not stated) : pKd came out at 4.01

Recorded pKd for N=C(N)Sc1c[nH]c2ccccc12 on Indoleamine 2,3-dioxygenase 1 (Homo sapiens, UniProt P14902) was 4.75

I: NC(=O)c1csc(NC(=O)Cc2c[nH]c3ccccc23)c1
II: NC(S)=NNC(=O)Nc1ccc(Cl)c(Cl)c1
III: CCc1cccc2sc(NCCN3CCOCC3)nc12
IV: COC(=O)C(N)c1ccc2ccccc2c1 (configuration not stated)
# ascending order, key=pKd Provide the labels, sequenced as the question asks.
II, IV, I, III

A: OC(c1nc2ccccc2[nH]1)C(O)c1nc2ccccc2[nH]1 (configuration not stated)
B: O=S(=O)(NCc1cccnc1)c1ccc2ccccc2c1
Between item A and item B , which reported pKd is smaller? Mark your selection by writing its label.
A

Taken from ChEMBL document CHEMBL4130497.
